Kindly state melting point for each of the entries shown.

Guide cases for melting point, answers given:
molecule | result
O=C(O)Cc1ccc(NC(=O)c2ccc(Cl)cc2)cc1 | 252 °C
COc1ccc2c(c1)NCC(c1ccccc1)O2 (stereo unspecified) | 95 to 100 °C
CCOC(=O)c1cc2c3c(c(-c4ccccc4Cl)cc2n1CCCOC)C(=O)NC3=O | 235 to 237 °C
CCOC(=O)NN=C(c1ccc(Cl)cc1)c1ccc(CSC)cc1 | 105 to 109 °C
Cc1cc(C)cc(C(=O)N2CCC(=O)CC2Cc2ccccc2)c1 (stereo unspecified) | 108 °C

Give one value of melting point per listed molecule.
1. O=C(Oc1ccc([N+](=O)[O-])cc1)OC1CCN(C(=O)OCc2ccccc2)CC1
2. CON1C(C)(C)CC(OC(=O)c2ccc3nn(-c4cc(C(C)(C)CC(C)(C)C)cc(C(C)(C)c5ccccc5)c4O)nc3c2)CC1(C)C
3. COc1ccc2c(c1)cc(-c1nnn(Cc3cccc(OCc4ccc5ccccc5n4)c3)n1)c(=O)n2CCCCl
4. N#CCc1c(C(N)=O)ncn1C1CCCCO1 (stereo unspecified)
5. CC(O)c1cc(-c2ccc(Cl)cc2)no1 (stereo unspecified)

Return:
118 to 120 °C
84 to 90 °C
150 to 152 °C
198 to 199 °C
141 to 143 °C

====

Kindly state melting point for each of the entries shown.

Give one value of melting point per listed compound.
1. CN(Nc1ccccc1COc1ccn(-c2ccc(Cl)cc2)n1)C(N)=O
2. O=CNCC1CCCc2cc(NS(=O)(=O)c3cccc(F)c3)ccc21 (stereo unspecified)
3. CCCCCc1ccc(-c2ccc(OCCCC)c(N)c2)cc1
4. Clc1ccc(C(Cl)c2cc3cc(Cl)cc(Cl)c3o2)cc1 (stereo unspecified)
5. O=Cc1ccc(OCc2ccccc2)c(OCc2ccccc2)c1OCc1ccccc1
6. CCOC(=O)CCCc1csc(NC(=O)NCc2ccccc2)n1
7. CC1CC(C)(C)c2cccc(NC(=O)c3cn(C)nc3C(F)F)c21 (stereo unspecified)
8. O=C(NC1=NN(c2ccc(Cl)c(Cl)c2)CC1)c1ccc(Cl)cc1

Return:
1. 152 to 154 °C
2. 143 to 144 °C
3. 38 °C
4. 72 to 74 °C
5. 73 to 74 °C
6. 157 °C
7. 131 to 134 °C
8. 177 to 178 °C

Give one value of melting point per listed compound.
1. COC(=O)C(Br)c1ccc(OCCOc2ccc(Cl)cc2)cc1 (stereo unspecified)
2. Oc1ccc(-c2c3ccccc3cc3sc4ccccc4c23)cc1I

Return:
["76 to 80 °C", "125 to 128 °C"]

====

Kindly state melting point for each of the entries shown.

Guide cases for melting point, answers given:
compound | result
Cc1ccc2c3c(c(=O)oc2c1)CNCC3 | 128 to 130 °C
CC(C)Nc1ncc2cc(-c3c(Cl)cccc3Cl)c(=O)n(C)c2n1 | 194 to 196 °C
COc1cc2c(NC3CCCC3)c(C#N)cnc2cc1F | 162 to 164 °C
C[C@]12C[C@H](c3ccc(OCCCCCCCl)cc3)[C@@H]3c4ccc(O)cc4CC[C@H]3[C@@H]1CC[C@@H]2O | 176 °C

Give one value of melting point per listed compound.
1. COc1ncc(C(F)(F)F)cc1-c1cccn2nc(Cl)nc12
2. O=C(CCCN1C(=O)c2ccccc2C1=O)N1CCC(C2c3ncc(Br)cc3CCc3cc(Cl)cc(Br)c32)CC1 (single isomer, unassigned; (+))
3. CCCCc1ccc(C(=O)O)c(=O)[nH]1
4. CC(C)(C)OC(=O)N1CCNC(=O)C1Cc1ccc(F)cc1 (centres undefined)
5. Cc1nc2cc3c(cc2s1)C1(CO3)C(=O)N(Cc2ccccn2)c2ccccc21 (centres undefined)

Return:
1: 183 to 185 °C; 2: 100 to 102 °C; 3: 149 °C; 4: 145 to 147 °C; 5: 249 to 250 °C

====

Kindly state melting point for each of the entries shown.

Give one value of melting point per listed molecule.
1. CCCCC[C@H]1CC[C@H](c2ccc(-c3ccc(C=O)cc3)cc2)CC1
2. Cc1ccc(OC2SCC(O)C(O)C2O)c(-c2ccoc2)n1 (stereo unspecified)
3. Clc1nccnc1N1CCNCC1
4. Cc1cccc(Sc2ccc3c(c2)CC[C@H]2NC(=O)CC[C@]32C)c1
5. Cc1cc2c(cc1N)C(C)(C)CCC2(C)C

Return:
1. 115 to 116 °C
2. 162 °C
3. 47 to 53 °C
4. 189 to 191 °C
5. 94 to 95 °C

====

Kindly state melting point for each of the entries shown.

Guide cases for melting point, answers given:
molecule | recorded.metric | result
CCCCCSC1=NC(c2cccc([N+](=O)[O-])c2)C(C(=O)OCC)=C(C)N1 (stereo unspecified) | melting point | 104 to 105 °C
CCC(=O)C1=C(O)CC(c2c(C)cc(C)c([N+](=O)[O-])c2C)CC1=O (stereo unspecified) | melting point | 174 °C
CCOC(=O)CC(=O)Nc1cc(F)cc(F)c1 | melting point | 42 to 45 °C

Give one value of melting point per listed molecule.
1. O=c1c(-c2ccccc2)c[nH]n1-c1cccc(Cl)c1
2. Cc1ccc(C2SC3(CCN(CCCC(=O)c4ccc(F)cc4)CC3)c3ccccc32)cc1 (stereo unspecified)
3. CC(C)(C)C1=C(CO)N=NC1=O

Return:
211 to 212 °C
134 to 135 °C
169 to 172 °C

====

recorded.metric: melting point

compound | result
CC(C)(C)OC(=O)N1CC(CCl)c2c1cc(NC(=O)OCC1c3ccccc3-c3ccccc31)c1ccccc21 (centres undefined) | 103 to 106 °C
CCn1cc(C(=O)O)c(=O)c2cc(F)c(N3CCC(C(C)N)C3)c(F)c21 (centres undefined) | 212 to 217 °C
O=C(CN1CCC(Cc2ccc(F)cc2)CC1)Nc1ccc(O)cc1 | 70 to 77 °C
O[C@H]1c2ccccc2C=C[C@@H]1OC(C(F)(F)F)C(F)(F)F | 88.5 to 90 °C
Cc1c(C)c(N2CCN(c3ccc(C(F)(F)F)cc3)CC2)c(C)c2c1OC(C)(C)C2N1CCCC1 (centres undefined) | 140 to 141 °C
Cc1ccnc(C(=O)c2[nH]c3cc(Cl)c(F)cc3c2CC(=O)O)c1 | 220 °C

Give one value of melting point per listed compound.
1. CCOC(=O)c1ncc2c(c1COC)c1c(OCc3ccccc3)cccc1n2S(=O)(=O)c1ccc(C)cc1
2. CS(=O)(=O)c1ccc(C(=O)c2c(S(C)(=O)=O)noc2C2CC2)c(Cl)c1
3. O=[N+]([O-])c1cc(CCC(O)=S)cc(O)c1O

Return:
["149 to 150 °C", "150 °C", "91 to 93 °C"]

====

Kindly state melting point for each of the entries shown.

Guide cases for melting point, answers given:
compound | result
CC(c1ccccc1)C(Oc1c(Br)cc(-c2c3ccccc3c(Br)c3sc4ccccc4c23)cc1Br)C(=O)O (stereo not given) | 115 to 120 °C
O=c1cc(-c2ccccc2)oc2cccc(OCCO)c12 | 124 °C

Give one value of melting point per listed compound.
1. O=C(O)C1CCc2sc3ccccc3c2C1 (stereo not given)
2. Cn1nnnc1SCCCC(=O)c1ccc(C(=O)O)o1

Return:
202 to 203 °C
154 to 157 °C

Enquiry: Name the reported melting point value associated with the compound O=C(NC(=S)Nc1nc(-c2ccc3c(c2)CCCC3)cs1)c1cccc2ccccc12
Return: 216 to 217 °C

====

recorded.metric: melting point

Guide cases for melting point, answers given:
compound | melting point
CC(=O)Nc1cccc(-c2ccc3nnn(Cc4ccc5ncccc5c4)c3n2)c1 | 198 to 201 °C
O=C(O)C1=C(C(=O)Nc2ccc(Cl)cc2F)CCCC1 | 91 to 93 °C
CC1CN(c2c(F)c(F)c3c(=O)c(C(=O)O)cn(C4CC4)c3c2F)CCN1 (stereo not given) | 235 to 237 °C

Give one value of melting point per listed compound.
1. O=C1N=NC(c2nc(Cl)c(Cl)[nH]2)=N1
2. Cc1c(Br)cccc1N1CCn2c(cc3ccccc32)C1=O

Return:
1. 176 to 178 °C
2. 178 to 180 °C

Give one value of melting point per listed compound.
1. C#CCOc1ccc(OC)cc1-c1nc2cnccc2[nH]1
2. C=CCCNCc1nnc2n1-c1ccc(Cl)cc1C(c1ccccc1)=NC2
3. N=c1[nH]c2ccncc2c2nc(-c3ccco3)nn12
4. CCN(CC)C(=O)CCS(=O)c1cc(-c2ccccc2)nc2ccccc12 (stereo not given)

Return:
["210 °C", "157 to 160 °C", "320 to 321 °C", "130 °C"]

Give one value of melting point per listed compound.
1. COc1cnc2sc(SCc3ccccc3)nn2c1=O
2. O=[N+]([O-])c1ccc(F)c(-c2cccs2)c1
3. CC(N=Cc1ccc(O)cc1)c1ccccc1 (single isomer, unassigned; (-))
4. CCCCn1c2c(c(=O)n(CCCC)c1=O)CN(S(=O)(=O)Cc1ccccc1)N2
5. CC(NC(=O)Cc1cc(F)cc(F)c1)C(=O)NC1C(=O)NC(Cc2ccccc2)c2ccccc21 (stereo not given)
6. CC(O)c1ccc2c(NCc3ccc(NC(=O)c4ccc(F)cc4)cc3)nc(N(C)C)nc2c1 (stereo not given)
7. CN(C)CCCN1c2ccccc2N(C)C(=O)c2cccnc21
8. Cc1ccc(S(=O)(=O)N2CCCC2c2ccsc2)cc1 (racemic)

Return:
1. 145 to 147 °C
2. 65 °C
3. 176 to 178 °C
4. 137 to 140 °C
5. 106 to 107 °C
6. 232 °C
7. 98.5 to 100 °C
8. 114 °C

Give one value of melting point per listed compound.
1. C=C(C)C(=O)Oc1ccc(NS(C)(=O)=O)cc1
2. NC(CC(=O)O)C(=O)N1C(=O)c2ccc(C(=O)O)cc2C1=O (stereo not given)
3. CN1C(=O)Cc2c(sc3ccccc23)S1(=O)=O
4. CCc1csc(NC(=O)Nc2ccc(N3CCN(C(=O)Nc4ccc(OCCO)cc4C(F)(F)F)CC3)cc2)n1
5. O=S(=O)(NCc1ccncc1)c1ccc(Br)s1

Return:
["129 to 131 °C", "242 to 243 °C", "175 to 178 °C", "124 to 125 °C", "159 °C"]

Give one value of melting point per listed compound.
1. CCCc1c(OCC(O)CSc2ccc(CC(=O)OC)c(Cl)c2Cl)ccc(C(C)=O)c1O (stereo not given)
2. CCOC(=O)C(=CNc1cccc(N)c1)C(=O)OCC
3. CCOC(OCC)C(N)=C(c1ccncc1N)c1ccccc1Cl
4. CCCOc1nc(C(F)(F)F)cc(=O)n1-c1cc(O)c(Cl)cc1F
5. C=CCNc1nnc(-c2ccc(F)c(F)c2Nc2ccc(CC)cc2F)o1

Return:
1. 85 to 88 °C
2. 71 to 74 °C
3. 94 to 95 °C
4. 122 to 123 °C
5. 120 to 123 °C

Give one value of melting point per listed compound.
1. CC(C)c1nc2c(N)nc3ccccc3c2n1CCOc1ccccc1
2. COc1cc(OC)nc(NC(=O)NS(=O)(=O)c2c3c(Cl)cccc3nn2C)n1
3. N=C(N)Nc1nc(C(=O)Nc2cccc(C(=O)NC(CC(=O)O)c3ccccc3)c2)cs1 (racemic)
4. C=CCC(C(=O)NCC#CCN(C)C)(c1ccccc1)c1ccccc1

Return:
["229 to 231 °C", "171 to 172 °C", "235 °C", "107 to 109 °C"]

Give one value of melting point per listed compound.
1. O=C(N[C@H](Cc1ccc(C(F)(F)F)cc1)[C@@H](O)c1ccc(F)cc1F)c1ccc(F)c2ccccc12 (racemic)
2. CC(=O)NCC1CN(c2ccc(N3CCN(c4nc5ccc(F)c(F)c5o4)CC3)c(F)c2)C(=O)O1 (stereo not given)
3. C=CCOc1ccc(OCCBr)cc1
4. COc1cc(-c2ccccc2)c(OC)cc1Nc1ncnc2cc(OC)c(OC)cc12
5. COc1ccc(Oc2cccc(C(=O)O)c2)cc1

Return:
1. 194 to 195 °C
2. 213 to 214 °C
3. 27 to 28 °C
4. 226 to 229 °C
5. 141 to 143 °C

Give one value of melting point per listed compound.
1. O=C(/C=C/[C@H]1CC[C@@H]2OC(=O)C[C@@H]21)COc1ccccc1
2. Cc1noc([C@@H]2CSCc3c(O)cc(O)c(C)c3C(=O)OC[C@@H](O)C(=O)N2)n1
3. CCOC(=O)c1cc2c(cn1)[nH]c1cccc(C=O)c12
4. COc1ccccc1-c1ccc(C#N)c(=O)[nH]1

Return:
["91 °C", "265 to 267 °C", "273 to 276 °C", "236 to 238 °C"]
